Below, pKi values reported for the protein given by its sequence across several publications.
Sequence of the target: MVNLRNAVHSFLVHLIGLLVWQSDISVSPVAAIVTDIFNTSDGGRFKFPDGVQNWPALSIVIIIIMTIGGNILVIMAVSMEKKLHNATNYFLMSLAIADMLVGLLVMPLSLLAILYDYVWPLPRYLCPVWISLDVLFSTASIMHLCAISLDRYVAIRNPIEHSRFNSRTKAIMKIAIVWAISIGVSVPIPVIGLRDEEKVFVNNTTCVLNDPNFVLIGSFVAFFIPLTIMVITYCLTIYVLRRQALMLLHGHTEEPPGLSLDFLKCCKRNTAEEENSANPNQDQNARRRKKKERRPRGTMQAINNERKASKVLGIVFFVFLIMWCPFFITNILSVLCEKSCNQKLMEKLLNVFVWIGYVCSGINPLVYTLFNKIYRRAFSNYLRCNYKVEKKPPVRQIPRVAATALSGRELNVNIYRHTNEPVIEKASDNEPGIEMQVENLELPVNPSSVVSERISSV
pKi: −log10 of the molar value.

A selection of reference data follows.
COMPOUND	REPORTED ENDPOINT	RESULT
Cc1cc(C(=O)N2CCN(CC(=O)c3ccc(F)cc3)CC2)nn1C	pKi	< 5.00
O=S(=O)(c1ccc(F)cc1)c1ccc(/C=C/c2ccc(F)cc2)nc1	pKi	< 5.40
O=C(NC1CCCCC1)N1OCC2CSc3ccc(F)cc3C21 (stereo unspecified)	pKi	< 5.00
Cc1ccccc1-c1nc2ccc(Oc3ccc(F)cc3)cc2c(=O)n1C[C@H]1CCCN(C(C)C)C1 (stereo in doubt; 36)	pKi	< 6.00
Cc1noc2c1C(=O)CC(CN1CCC(C(=O)c3ccc(F)cc3)CC1)C2 (stereo unspecified)	pKi	< 5.00

Request: Report pKi for O=C(NCCCCN1CCN(c2ccccc2)CC1)c1ccc2ncccc2c1 tested on the protein given by its sequence.
Result: < 6.00
